biological target: glutathione-S-transferase (GST) tagged LXRbeta LBD (ligand binding domain) (Homo sapiens, UniProt P55055); construct: purchased Invitrogen pv4658.pps; assay: LanthaScreen TR-FRET Liver X Receptor Coactivator Assay, LXR beta-LBD; format: biochemical; details: efficacy in relation to reference dual agonist T1317; read-out: LXR beta activity at max dose (%) (Emax)
Sequence (P55055 222-460 limits assumed): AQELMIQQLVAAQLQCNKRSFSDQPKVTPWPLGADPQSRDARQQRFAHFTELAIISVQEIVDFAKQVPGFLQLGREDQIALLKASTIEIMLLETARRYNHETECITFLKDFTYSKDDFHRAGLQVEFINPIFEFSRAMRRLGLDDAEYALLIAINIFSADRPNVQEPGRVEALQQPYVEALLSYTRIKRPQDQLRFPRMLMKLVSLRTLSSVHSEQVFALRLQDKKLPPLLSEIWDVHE
RECORDED_METRIC: Emax (%)
# unit: % | format: bare number

// solved cases for Emax follow
[
  {
    "COMPOUND": "CN(C)C(=O)c1ccc(-c2cnc(N3CCN(C(=O)OCC4CC4(C)C)CC3)c(C#N)c2)cc1Cl (centres unmarked) [Example 3-13]",
    "MEASUREMENT_UNIT": "%",
    "Emax": 31
  },
  {
    "COMPOUND": "CN(C)C(=O)c1ccc(-c2ccc(N3CC4CCC(C3)N4C(=O)OC(C)(C)C)cc2)cc1Cl [Example 8-3]",
    "MEASUREMENT_UNIT": "%",
    "Emax": 87
  },
  {
    "COMPOUND": "CN(C)C(=O)c1ccc(-c2cnc(N3CCN(S(=O)(=O)c4ccccc4)CC3)c(C#N)c2)cc1Cl [Example 1-16]",
    "MEASUREMENT_UNIT": "%",
    "Emax": 69
  }
]

Supply Emax value. Item: CN(CC(O)CO)C(=O)c1ccc(-c2cnc(N3CCN(C(=O)OC(C)(C)C)CC3)c(C#N)c2)cc1Cl (centres unmarked) [Example 5-18]
70

Supply Emax value. Item: CN(C)C(=O)c1ccc(-c2ccc(N3CCN(S(=O)(=O)c4c(Cl)cccc4Cl)CC3)cc2)cc1Cl [Example 4-13]
97

Supply Emax value. Item: CN(CCc1ccccc1)C(=O)c1ccc(-c2cnc(N3CCN(C(=O)OC(C)(C)C)CC3)c(C#N)c2)cc1Cl [Example 5-26]
74

Supply Emax value. Item: CN(C)C(=O)c1ccc(-c2cnc(N3CCN(C(=O)OCC4(C)CC4)CC3)c(C#N)c2)cc1Cl [Example 3-12]
55

Supply Emax value. Item: CO[C@@](C(=O)N1CCN(c2ncc(-c3ccc(C(=O)N(C)C)c(Cl)c3)cc2C#N)CC1)(c1ccccc1)C(F)(F)F [Example 2-35]
70
